TARGET UNDER TEST: Vezf1 (His-Vezf1) (UniProt Q5SXC4)
Sequence: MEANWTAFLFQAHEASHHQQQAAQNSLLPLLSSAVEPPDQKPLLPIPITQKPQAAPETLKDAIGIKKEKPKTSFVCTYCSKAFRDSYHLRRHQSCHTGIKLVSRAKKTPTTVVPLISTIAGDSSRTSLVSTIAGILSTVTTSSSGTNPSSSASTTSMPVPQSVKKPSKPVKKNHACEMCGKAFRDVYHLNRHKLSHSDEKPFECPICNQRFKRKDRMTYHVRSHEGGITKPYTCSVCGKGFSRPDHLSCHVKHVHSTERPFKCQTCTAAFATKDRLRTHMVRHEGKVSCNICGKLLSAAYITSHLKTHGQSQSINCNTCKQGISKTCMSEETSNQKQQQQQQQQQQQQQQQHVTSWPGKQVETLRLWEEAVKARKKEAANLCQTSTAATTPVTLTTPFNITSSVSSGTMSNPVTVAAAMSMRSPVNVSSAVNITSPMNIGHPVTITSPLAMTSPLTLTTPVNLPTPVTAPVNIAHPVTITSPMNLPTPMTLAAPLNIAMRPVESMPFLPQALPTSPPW
TEST: EMSA
STUDY CONDITIONS: no inhibitor; 25 nM DNA, 50-1000 nM protein; 20 mM Hepes pH 7.5, 10 mM MgCl2, 50 mM NaCl, 1 mM EDTA, 5 ng/uL poly dA.dT, 10 min at room temperature; 5% acrylamide gel in 0.5x TBE
pKd: −log10 of the molar value.
ENDPOINT: pKd

{"MONOMER SEQUENCE": "AGGCGCGCCCCGGTCCGGCGCTCCCCCCGCATCCCCGAGCCGGGGCGCGCCT (double strand) [HS4-FPIII Vezf1 site duplex]", "ENDPOINT": "pKd", "RECORDED VALUE": 6.19}

Measured values drawn from paper PMC6100598 for this set.
